Each item that follows carries a reported GI50.
tested on: MDA-N; assay: NCI tumour cell line growth inhibition, 48 h
Active and inactive are the calls of the source. Cut-off read from the data, not from the text of the source: active = GI50 up to about 1.1 µM and inactive = higher.

Observe how each entry below is paired with its result.
c1ccc2c(c1)c1c(c3ccccc32)CN2CCCC2C1 (centres undefined) :: 2.82 µM (inactive)
Cc1ccc2c(c1)CN(C(=O)CCC(=O)OCc1ccccc1)c1ccc(C)cc1CN2C(=O)CCC(=O)OCc1ccccc1 :: > 100 µM (inactive)
C=CCCCCNC(=O)C[C@@H]1C2=C(CC[C@H]1O[Si](C)(C)C(C)(C)C)N1C(=O)CCC/C=C\C1C2 (some centres undefined) :: 16.3 µM (inactive)
CN1C(=O)N(C)C2(CCN(CC(CC3OCCO3)c3ccc(F)cc3)CC2)C1=O (centres undefined) :: > 100 µM (inactive)

What value of measured GI50 is listed for COc1ccc(/C=N/NS(=O)(=O)c2ccc(/C=C3\NC(=O)NC3=O)cc2)cc1 ?
> 100 µM (inactive)

What value of measured GI50 is listed for C=C(C)[C@H]1C2=CC(C)=C(O2)[C@@H](O[C@@H]2c3oc(cc3C)[C@H](C(=C)C)[C@H]3C=C(CC[C@H]2C(=C)C)C(=O)O3)[C@H](C(=C)C)CCC2=C[C@H]1OC2=O ?
> 100 µM (inactive)

What value of measured GI50 is listed for CCOC(=O)n1cncc1CC(NC(=O)Cc1c(C(=O)C=C(C)C)[nH]c2ccccc12)C(=O)OC (centres undefined) ?
23 µM (inactive)

What value of measured GI50 is listed for C[C@]12CCC(=O)C=C1C[C@@H](O)[C@@H]1[C@@H]2CC[C@@]2(C)[C@H]1CC[C@]2(C)O ?
> 100 µM (inactive)

What value of measured GI50 is listed for O=c1c2c3c(sc2nc2n1N=CN(c1ccc(F)cc1)C2)CCCC3 ?
> 100 µM (inactive)
